So I've got a bunch of compounds here, and I need their inhibition values.
# tested_on: Glucose transporter (Leishmania mexicana) (UniProt O61059)
# procedure_details: ST_JUDE_LEISH: Cytotoxicity at 2uM final concentration against transgenic Leishmania Mexicana promastigotes LmGT2 that are glucose transport deficient and complemented with the L. Mexicana glucose transporter 2. Activity is measured by DNA content using SYBR green in vitro
# Assay type: functional
Give the value in % but do not write % after it.

(Q) What does the data say about its inhibition? Entry: Cc1cc2nc(-c3cccc(C(=O)NC4CCN(Cc5ccccc5)CC4)c3)[nH]c2cc1C
(A) 1.84

(Q) What does the data say about its inhibition? Entry: CCCc1nc2c(N3CC(NC(=O)/C=C/c4ccccc4)C3)cccc2n1C1CC1
(A) 8.19

(Q) What does the data say about its inhibition? Entry: CN(CCON1C(=N)N=C(N)NC1(C)C)c1ccccc1
(A) 0.35

(Q) What does the data say about its inhibition? Entry: C=CCc1c(C(=O)NCC23CC4CC(CC(C4)C2)C3)nc2ccccc2c1O
(A) 3.24

(Q) What does the data say about its inhibition? Entry: CN1CCN(c2cc3c(cc2Br)CCN3C(=O)Nc2ccc(-c3cnc4ccccc4c3)cc2)CC1
(A) 109

(Q) What does the data say about its inhibition? Entry: Cc1ccc(-c2noc(COc3ccccc3C(=O)NC3CCCC3)n2)cc1
(A) 6.15

(Q) What does the data say about its inhibition? Entry: Cn1ncc2c3c(CCN4CCC(NCc5ccc6c(c5)NC(=O)CO6)CC4)c(Cl)cnc3ccc21
(A) -0.28

(Q) What does the data say about its inhibition? Entry: Cc1c(C(C)(C)C)ccc2nc(N)nc(N)c12
(A) 56.6

(Q) What does the data say about its inhibition? Entry: COc1cc2nc(N3CCN(C(=O)c4ccco4)CC3)nc(NCc3ccccc3)c2cc1OC
(A) 11.1

(Q) What does the data say about its inhibition? Entry: Cc1cc(=O)c(-c2ccc(OCc3ccc(OC(F)(F)F)cc3)cc2)c(C)[nH]1
(A) 2.08

(Q) What does the data say about its inhibition? Entry: O=C(NC1CCN(Cc2ccccc2)CC1)c1cccc(-c2cc3cc(Cl)c(Cl)cc3[nH]2)c1
(A) -0.91

(Q) What does the data say about its inhibition? Entry: CC(C)NC(=O)c1cccc(-c2ccc(OCCN3CCCC3c3cc4ccccc4[nH]3)cc2)c1 (configuration not stated)
(A) -1.97

###

# tested_on: Glucose transporter (Leishmania mexicana) (UniProt O61059)
# procedure_details: ST_JUDE_LEISH: Cytotoxicity at 2uM final concentration against transgenic Leishmania Mexicana promastigotes LmGT2 that are glucose transport deficient and complemented with the L. Mexicana glucose transporter 2. Activity is measured by DNA content using SYBR green in vitro
# Type: functional
parameter_measured: inhibition (%)
Give the value in % but do not write % after it.

(Q) What does the data say about its inhibition? Entry: CN(C)CCOc1ccc(N2CCN(CCCCNC(=O)c3ccc(NC(=O)c4ccc(Cl)cc4)cc3)CC2)cc1
(A) 3.48

(Q) What does the data say about its inhibition? Entry: CCc1c(CCNCCCCCCNC(C)(C)Cc2ccc3c(c2CC)OCO3)ccc(OC)c1OC
(A) 6.49

(Q) What does the data say about its inhibition? Entry: CC(C)(C)c1ccc(NC(=O)c2ccc(CN3CCCN(Cc4cccc(F)c4)CC3)cc2)cc1
(A) 11.8

(Q) What does the data say about its inhibition? Entry: Cc1[nH]c(C)c(-c2cc3ccccc3o2)c(=O)c1Cl
(A) 0.5

Data provenance: ChEMBL document CHEMBL3433997
